system_name: Ros1 enzyme (Homo sapiens, UniProt P08922)
Construct: 0.5 μg/ml Ros1 enzyme
Sequence (P08922 28-2347): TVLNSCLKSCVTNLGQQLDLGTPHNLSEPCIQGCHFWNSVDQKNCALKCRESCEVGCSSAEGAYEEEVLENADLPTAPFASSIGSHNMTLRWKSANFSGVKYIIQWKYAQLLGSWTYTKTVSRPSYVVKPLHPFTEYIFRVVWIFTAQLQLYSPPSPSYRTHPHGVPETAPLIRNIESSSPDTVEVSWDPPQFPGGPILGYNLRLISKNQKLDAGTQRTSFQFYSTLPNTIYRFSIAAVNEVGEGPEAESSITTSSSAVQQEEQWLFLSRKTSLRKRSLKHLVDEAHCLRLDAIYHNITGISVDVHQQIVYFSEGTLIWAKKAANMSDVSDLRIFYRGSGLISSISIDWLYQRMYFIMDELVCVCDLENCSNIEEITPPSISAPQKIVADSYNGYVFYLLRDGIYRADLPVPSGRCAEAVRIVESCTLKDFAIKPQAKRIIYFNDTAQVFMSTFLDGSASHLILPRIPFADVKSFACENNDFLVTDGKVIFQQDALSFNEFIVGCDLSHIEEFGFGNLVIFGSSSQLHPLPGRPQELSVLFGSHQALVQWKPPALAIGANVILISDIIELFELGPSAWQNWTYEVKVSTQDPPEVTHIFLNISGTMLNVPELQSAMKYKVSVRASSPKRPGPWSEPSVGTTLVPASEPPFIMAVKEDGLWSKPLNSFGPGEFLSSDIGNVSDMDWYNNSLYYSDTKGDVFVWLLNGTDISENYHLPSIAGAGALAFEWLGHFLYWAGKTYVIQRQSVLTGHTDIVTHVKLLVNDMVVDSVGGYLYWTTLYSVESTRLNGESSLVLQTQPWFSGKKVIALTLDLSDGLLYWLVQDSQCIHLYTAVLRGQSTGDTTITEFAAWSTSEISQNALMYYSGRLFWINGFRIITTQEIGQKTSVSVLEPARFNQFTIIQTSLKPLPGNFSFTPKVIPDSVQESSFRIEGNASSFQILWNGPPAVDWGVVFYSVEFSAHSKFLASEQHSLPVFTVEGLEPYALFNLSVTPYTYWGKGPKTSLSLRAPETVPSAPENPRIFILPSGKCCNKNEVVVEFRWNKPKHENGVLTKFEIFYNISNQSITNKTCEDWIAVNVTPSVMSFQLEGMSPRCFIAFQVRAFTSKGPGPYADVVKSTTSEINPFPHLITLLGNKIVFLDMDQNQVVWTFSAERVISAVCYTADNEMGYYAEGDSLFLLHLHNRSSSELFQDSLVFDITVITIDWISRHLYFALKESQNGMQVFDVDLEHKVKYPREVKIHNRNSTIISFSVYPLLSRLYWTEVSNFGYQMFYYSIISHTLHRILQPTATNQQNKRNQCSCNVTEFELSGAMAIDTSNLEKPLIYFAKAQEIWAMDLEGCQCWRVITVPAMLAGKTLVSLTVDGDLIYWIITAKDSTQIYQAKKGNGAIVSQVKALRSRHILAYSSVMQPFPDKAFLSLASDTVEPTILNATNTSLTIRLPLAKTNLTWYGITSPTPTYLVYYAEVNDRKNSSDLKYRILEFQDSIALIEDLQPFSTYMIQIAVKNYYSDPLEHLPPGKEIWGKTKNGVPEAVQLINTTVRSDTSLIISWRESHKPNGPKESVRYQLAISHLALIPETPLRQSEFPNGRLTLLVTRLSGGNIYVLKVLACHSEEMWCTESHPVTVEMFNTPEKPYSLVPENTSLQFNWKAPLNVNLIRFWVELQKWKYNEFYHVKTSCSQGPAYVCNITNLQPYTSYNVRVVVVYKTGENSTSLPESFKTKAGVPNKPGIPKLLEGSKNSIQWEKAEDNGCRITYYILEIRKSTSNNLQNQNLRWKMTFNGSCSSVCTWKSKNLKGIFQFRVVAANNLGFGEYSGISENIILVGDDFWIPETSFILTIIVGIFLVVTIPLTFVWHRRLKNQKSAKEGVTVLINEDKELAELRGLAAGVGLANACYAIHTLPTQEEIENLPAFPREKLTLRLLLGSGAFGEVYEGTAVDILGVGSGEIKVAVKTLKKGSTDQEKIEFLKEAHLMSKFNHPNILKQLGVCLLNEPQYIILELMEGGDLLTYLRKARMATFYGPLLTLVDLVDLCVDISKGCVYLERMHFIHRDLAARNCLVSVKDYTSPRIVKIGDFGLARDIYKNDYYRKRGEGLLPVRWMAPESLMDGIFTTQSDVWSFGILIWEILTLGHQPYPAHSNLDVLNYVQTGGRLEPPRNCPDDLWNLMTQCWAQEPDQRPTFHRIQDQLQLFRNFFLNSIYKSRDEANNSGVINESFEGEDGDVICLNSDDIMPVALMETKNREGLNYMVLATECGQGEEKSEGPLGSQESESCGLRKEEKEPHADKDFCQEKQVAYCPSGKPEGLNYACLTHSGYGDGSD
measurement_notes: Ros1 enzymatic assay
Assay type: biochemical
test_context: Ros1 enzymatic assay; read-out: ROS1 pIC50 (converted)
// thresholds for IC50 classes: bucket 1 (below 30 nM), bucket 2 (30 nM to below 500 nM), bucket 3 (500 nM or more)

compound="CC(C)c1ccc(COc2ccc(-c3c(-c4ccncc4)nn4c3CN(C(=O)CN(C)C)CC4)cc2)cc1 [Compound 181]" system_name="Ros1 enzyme (Homo sapiens, UniProt P08922)" classification="bucket 3"
compound="CC(C)c1ccc(COc2ccc(-c3c(-c4ccnc5[nH]ccc45)nn4c3C(=O)NCC4)cc2)cc1 [Compound 155]" system_name="Ros1 enzyme (Homo sapiens, UniProt P08922)" classification="bucket 2"
compound="COc1cc(OCc2ccc(C(C)C)cc2)ccc1-c1c(-c2ccncc2)nn2c1C(=O)NCC2 [Compound 34]" system_name="Ros1 enzyme (Homo sapiens, UniProt P08922)" classification="bucket 2"
compound="CC(C)c1ccc(COc2ccc(-c3c(-c4ccncn4)nn4c3C(=O)N(CC3(C)COC3)CC4)cc2)cc1 [Compound 163]" system_name="Ros1 enzyme (Homo sapiens, UniProt P08922)" classification="bucket 2"
compound="O=C1NCCn2nc(-c3ccncc3)c(-c3ccc(OCc4ccccc4)cc3)c21 [Compound 130]" system_name="Ros1 enzyme (Homo sapiens, UniProt P08922)" classification="bucket 3"

Note: attention shifts to another entry.
Category of COc1ncc(COc2ccc(-c3c(-c4ccncc4)nn4c3C(=O)NCC4)cc2)cn1 [Compound 229] , please.
bucket 3
